Tested on: normal human aortic smooth muscle cells
PROPERTY_NAME: GI50

As a guide, the following entries are already answered.
INSERT INTO results (molecule, result) VALUES
  ('CC(C)(C)C(=O)NC1=NN(C(=O)C(C)(C)C)C(CNS(=O)(=O)CCSCCN)(c2ccccc2)S1 (stereo not shown)', '< 10 µM'),
  ('CN(C)CCCS(=O)(=O)NCC1(c2ccccc2)SC(NC(=O)C(C)(C)C)=NN1C(=O)C(C)(C)C (single isomer, unassigned; (-))', '< 10 µM'),
  ('CCC(=O)N1N=C(NC(=O)C(C)(C)C)SC1(CCNS(C)(=O)=O)c1ccccc1 (single isomer, unassigned; (-))', '< 10 µM');

# lookup: normal human aortic smooth muscle cells GI50, key = CC(C)(C)C(=O)NC1=NN(C(=O)C(C)(C)C)C(CN)(c2ccccc2)S1 (stereo not shown)
< 10 µM

# lookup: normal human aortic smooth muscle cells GI50, key = CCNCCS(=O)(=O)NCC1(c2ccccc2)SC(NC(=O)C(C)(C)C)=NN1C(=O)C(C)(C)C (single isomer, unassigned; (-))
< 10 µM

# lookup: normal human aortic smooth muscle cells GI50, key = CC(=O)N1N=C(N2CCCCC2=O)SC1(CCNS(C)(=O)=O)c1ccccc1 (single isomer, unassigned; (-))
< 10 µM

# lookup: normal human aortic smooth muscle cells GI50, key = CC(C)(C)C(=O)NC1=NN(C(=O)C(C)(C)C)C(CCCC(=O)NCCO)(c2ccccc2)S1 (stereo not shown)
< 10 µM

* * *

Reported GI50, normal human aortic smooth muscle cells.

INSERT INTO results (molecule, tested_target, result) VALUES
  ('CCNCCS(=O)(=O)NCCC1(c2ccccc2)SC(NC(=O)C(C)(C)C)=NN1C(=O)C(C)(C)C (stereo not drawn)', 'normal human aortic smooth muscle cells', '< 10 µM');

Give me measured GI50, please, for this molecule: CC(C)(C)C(=O)NC1=NN(C(=O)C(C)(C)C)C(CCNS(C)(=O)=O)(c2ccccc2)S1 (single isomer, unassigned; (-))
< 10 µM

Give me measured GI50, please, for this molecule: CN(C)CCS(=O)(=O)NCC1(c2ccccc2)SC(NC(=O)C(C)(C)C)=NN1C(=O)C(C)(C)C (single isomer, unassigned; (-))
< 10 µM

* * *

Reported GI50, normal human aortic smooth muscle cells.

Give me measured GI50, please, for this molecule: CC(C)C(=O)N1N=C(NC(=O)C(C)(C)C)SC1(CCNS(C)(=O)=O)c1ccccc1 (single isomer, unassigned; (-))
< 10 µM

Give me measured GI50, please, for this molecule: C=CS(=O)(=O)NCC1(c2ccccc2)SC(NC(=O)C(C)(C)C)=NN1C(=O)C(C)(C)C (stereo not drawn)
< 10 µM

Give me measured GI50, please, for this molecule: CCC(=O)N1N=C(N2CCCC2=O)SC1(CCNS(C)(=O)=O)c1ccccc1 (single isomer, unassigned; (-))
< 10 µM

* * *

The following molecules are shown together with reported melting point values.
Structures can show the parent of a compound that is named as a salt.

INSERT INTO assay_data (molecule, result) VALUES
  ('CC(=O)N1N=C(NC(=O)C(C)(C)C)SC1(CCNS(C)(=O)=O)c1ccccc1 (single isomer, unassigned; (-))', '187 to 190 °C'),
  ('CC(=O)N1N=C(N2CCCCC2=O)SC1(CCNS(C)(=O)=O)c1ccccc1 (single isomer, unassigned; (-))', '169 to 171 °C'),
  ('CCC(=O)N1N=C(N2CCCC2=O)SC1(CCNS(C)(=O)=O)c1ccccc1 (single isomer, unassigned; (-))', '188 to 191 °C'),
  ('CC(=O)N1N=C(N2CCCC2=O)SC1(CCNS(C)(=O)=O)c1ccccc1 (centres unmarked)', '137 to 140 °C'),
  ('CN(C)CCCS(=O)(=O)NCC1(c2ccccc2)SC(NC(=O)C(C)(C)C)=NN1C(=O)C(C)(C)C (single isomer, unassigned; (-))', '92 to 95 °C');

Give me measured melting point, please, for this molecule: CC(C)(C)C(=O)N1N=C(N2CCCC2=O)SC1(CCNS(C)(=O)=O)c1ccccc1 (single isomer, unassigned; (-))
107 to 110 °C

Give me measured melting point, please, for this molecule: CC(C)(C)C(=O)NC1=NN(C(=O)C(C)(C)C)C(CN)(c2ccccc2)S1 (centres unmarked) (as salt: hydrochloride)
175 to 182 °C

Give me measured melting point, please, for this molecule: CN(C)CCS(=O)(=O)NCC1(c2ccccc2)SC(NC(=O)C(C)(C)C)=NN1C(=O)C(C)(C)C (single isomer, unassigned; (-))
101 to 104 °C
